Molecular target: T1, human MerTK (human, UniProt Q12866 26-499)
T1 construct: also called HuMER
T1 sequence: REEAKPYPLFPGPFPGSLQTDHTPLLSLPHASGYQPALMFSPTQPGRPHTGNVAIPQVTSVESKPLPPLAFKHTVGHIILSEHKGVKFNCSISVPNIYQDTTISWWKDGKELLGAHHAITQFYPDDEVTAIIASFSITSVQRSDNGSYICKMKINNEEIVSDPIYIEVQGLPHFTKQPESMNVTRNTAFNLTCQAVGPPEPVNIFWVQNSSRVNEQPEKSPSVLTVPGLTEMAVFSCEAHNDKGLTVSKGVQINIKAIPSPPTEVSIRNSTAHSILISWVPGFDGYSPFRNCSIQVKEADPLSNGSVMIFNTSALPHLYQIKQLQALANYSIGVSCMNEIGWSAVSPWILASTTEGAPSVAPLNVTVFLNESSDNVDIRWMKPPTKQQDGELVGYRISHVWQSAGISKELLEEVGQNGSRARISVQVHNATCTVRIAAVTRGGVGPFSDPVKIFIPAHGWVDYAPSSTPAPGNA
Assay: SPR BIAcore T200, Ab captured, 37C
Method: All binding affinity determinations were obtained using Surface Plasmon Resonance (SPR) measurements from a BIAcore™-T200 instrument. Briefly, each rabbit or humanized antibody was captured to achieve approximately 100 RU (Response Units). […] Association rates (kₒₙ) and dissociation rates (koff) were calculated using a simple one-to-one Langmuir binding model (BIAcore T200 evaluation software version 2.0). The equilibrium dissociation constant (KD) was calculated as the ratio koff/kₒₙ.
testReadout: Kd (nM)
Numbers only, in nM.

Per the records, this binder ( h9E3.FN.v1 (antibody, V domains shown, also called h9E3.FN.V1 (Parent); 9E3.FN Humanized mAb V1) VH: EQQLVESGGGLIQPGGSLRLSCAVSGFSLSSNAMSWVRQAPGKGLEWIGIISSSGSTYSASWAKGRFTISKDSSKNTMYLQMNSLRAEDTAVYFCARVGFFVGYGAYDYGIIHRLDLWGQGTLVTVSS VL: DAQLTQSPSTLSASVGDRVTITCQSSKSIYNNNWLSWYQQKPGKPPKLLIYDASDLASGVPSRFSGSGSGTEFTLTISSLQPDDFATYYCAGGYSGDSDYAFGGGTKVEIK ) has Kd equal to 10.6

Hey, just so you know, these numbers are from patent US20220135701A1.
